Task for the reader: assign each of the following molecules its reported CC50 at 3 days.
test: MRC-5SV2 cytotoxicity
Format: cell-based, human
conditions: human, MRC-5SV2 cells, MRC-5 CC50, MRC-5SV2 cells, 3 days incubation
Expressed in µM, but write only the number.

Query: Given CCc1cn([C@@H]2O[C@H](CO)[C@@H](O)[C@H]2O)c2ncnc(CC)c12 [compound 37] , state its recorded CC50 at 3 days.
Response: 20.2

Query: Given CCOc1ncnc2c1c(CC)cn2[C@@H]1O[C@H](CO)[C@@H](O)[C@H]1O [compound 42] , state its recorded CC50 at 3 days.
Response: 52.5

---

Test system: T. b. brucei (Squib 427 strain)
test: In vitro activity against T. b. brucei
Format: cell-based
conditions: Trypanosoma brucei, read-out: T. b. bruc. EC50
assay_readout: EC50
Give the number first and the unit second.

Query: Given Cc1ncnc2c1c(C(C)C)cn2[C@@H]1O[C@H](CO)[C@@H](O)[C@H]1O , state its recorded EC50.
Response: 670 nM

Query: Given CCOc1ncnc2c1c(CC)cn2[C@@H]1O[C@H](CO)[C@@H](O)[C@H]1O , state its recorded EC50.
Response: 1250 nM

Query: Given CCc1cn([C@@H]2O[C@H](CO)[C@@H](O)[C@H]2O)c2ncnc(C)c12 , state its recorded EC50.
Response: 750 nM

Query: Given CCCC#Cc1cn([C@@H]2O[C@H](CO)[C@@H](O)[C@H]2O)c2ncnc(C)c12 , state its recorded EC50.
Response: 890 nM

Query: Given Cc1cn([C@@H]2O[C@H](CO)[C@@H](O)[C@H]2O)c2ncnc(C)c12 , state its recorded EC50.
Response: 820 nM

---

Task for the reader: assign each of the following compounds its reported pEC50.
Tested on: T. b. brucei (Squib 427 strain)
test: In vitro activity against T. b. brucei
Type: cell-based
conditions: Trypanosoma brucei, read-out: T. b. bruc. EC50
pEC50: −log10 of the molar value.

Query: Given Cc1ncnc2c1c(CC(C)C)cn2[C@@H]1O[C@H](CO)[C@@H](O)[C@H]1O [compound 30] , state its recorded pEC50.
Response: < 4.19

Query: Given Cc1ncnc2c1c(C1=CCCC1)cn2[C@@H]1O[C@H](CO)[C@@H](O)[C@H]1O [compound 16] , state its recorded pEC50.
Response: < 4.19

Query: Given Cc1ncnc2c1c(C1CCCC1)cn2[C@@H]1O[C@H](CO)[C@@H](O)[C@H]1O [compound 17] , state its recorded pEC50.
Response: < 4.19

Query: Given CCCCCc1cn([C@@H]2O[C@H](CO)[C@@H](O)[C@H]2O)c2ncnc(C)c12 [compound 26] , state its recorded pEC50.
Response: < 4.19
